test system: SARS-CoV-2 (USA-WA1/2020) in Calu-3 cells; type: cell-based; conditions: low dose (100 nM), Calu-3, 48 h
Hi all, reminder that labels come from dsRNA signal, AU Low, split as lo: < 7000 AU; med: ≥ 7000 AU and < 50000 AU; hi: ≥ 50000 AU

Some solved cases for reference:
O=c1[nH]c2ccc(Cl)cc2c(N[C@@H]2CN3CCC2CC3)c1-c1nc2ccccc2[nH]1 [CHIR-124]; lo
Cn1cc(-c2ccc3ncc(Cc4ccc5ncccc5c4)n3n2)cn1 [NVP-BVU972]; hi
O=C(NCc1cccc(O)c1)Nc1nc(-c2ccncc2)cs1 [RKI-1447]; med

Request: Form field 'band' for CC(C)(C)c1cc(C=C(C#N)C#N)cc(C(C)(C)C)c1O [Tyrphostin 9]
Result: med

====

tested on: SARS-CoV-2 (USA-WA1/2020) in Calu-3 cells; format: cell-based; details: low dose (100 nM), Calu-3, 48 h
Counter-ions that a name gives are not always drawn.
Lab note: compare dsRNA signal, AU Low with 20000 AU, writing TRUE if less and FALSE if equal or more.

Some solved cases for reference:
CC(C)(C)c1nc(-c2cccc(NS(=O)(=O)c3c(F)cccc3F)c2F)c(-c2ccnc(N)n2)s1.CS(=O)(=O)O [Dabrafenib Mesylate (GSK-2118436)]; TRUE
O=C(/C=C/c1ccc(O)c(O)c1)O[C@H](Cc1ccc(O)c(O)c1)C(=O)O [Rosmarinic acid]; FALSE
FC(F)c1nc2ccccc2n1-c1nc(N2CCOCC2)nc(N2CCOCC2)n1 [ZSTK474]; FALSE
Cc1noc(C)c1-c1ccc(-c2cc(C(N)=O)c(NC(N)=O)s2)c(O[C@H]2CCNC2)c1 [AZD3264]; FALSE
CN1CC[C@H](c2c(O)cc(O)c3c(=O)cc(-c4ccccc4Cl)oc23)[C@H](O)C1 [Flavopiridol]; TRUE
CN(C)C/C=C/C(=O)Nc1cc2c(Nc3ccc(F)c(Cl)c3)ncnc2cc1O[C@H]1CCOC1 [Afatinib dimaleate]; FALSE

Request: A record lists O=C1c2c(O)ccc(O)c2C(=O)c2c(NCCNCCO)ccc(NCCNCCO)c21 [Mitoxantrone HCl] . Is its dsRNA signal, AU Low below 20000 AU?
Result: FALSE

====

system: SARS-CoV-2 (USA-WA1/2020) in Calu-3 cells; format: cell-based; details: low dose (100 nM), Calu-3, 48 h
observed.property: dsRNA signal, AU Low (AU)
One number for each entry, in AU.

Below: 3 compounds and their reported dsRNA signal, AU Low.
Cn1cnc2c(F)c(Nc3ccc(Br)cc3F)c(C(=O)NOCCO)cc21; 54835.5
O=c1oc2c(O)c(O)cc3c(=O)oc4c(O)c(O)cc1c4c23; 14007.9
O=C(Nc1cc(Oc2cc(F)c(NC(=O)C3(C(=O)Nc4ccc(F)cc4)CC3)cc2F)ccn1)C1CC1; 34585.3

For every item in the list below, what is its measured dsRNA signal, AU Low?
1. COc1cc(N2CCC(N3CCN(C)CC3)CC2)ccc1Nc1ncc(Cl)c(Nc2ccccc2S(=O)(=O)C(C)C)n1
2. O=C(NOCCO)c1ccc2cncn2c1Nc1ccc(I)cc1F
3. CCCNC(=O)c1cn2ncnc(Nc3cc(C(=O)NC4CC4)ccc3C)c2c1C.Cl [BMS-582949 hydrochloride]
4. CCCNC(=O)Nc1ccc(Oc2ncnc3cc(OC)c(OC)cc23)cc1Cl
5. CC[C@H](Nc1ncnc2[nH]cnc12)c1nc2cccc(F)c2c(=O)n1-c1ccccc1

Result:
[4182.3, 1908.1, 64364.9, 35164.2, 3708.3]
